- Measured on: muscarinic acetylcholine receptors
- Assay: inhibition of specific binding of ^3 H-Oxotremorine-M (^3 H-Oxo)
- Condition notes: ^3 H-Oxotremorine 1.0 nM, rat cortex, 30 min. at 25° C.
Reported endpoint: IC50

Request the reported IC50 associated with C=CCCOc1nsnc1O[C@@H]1CN2CCC[C@H]1C2 (relative stereo)
1.2 nM

Next up: c1csc(-c2ccc(SCCSc3nsnc3OC3CN4CCC3CC4)s2)c1 (racemic)
104 nM

What do we get for FC(F)(F)CCCOc1nsnc1OC1CC2CCC1NC2 (mixture of isomers) [Compound 162] ?
179 nM

Thanks! And CCCCOc1nsnc1OC1CN2CCC1CC2 (racemic) ?
3.1 nM
